- Tested on: Nannizzia gypsea
- test-summary: Antifungal activity against Microsporum gypseum FF3 after 5 days by broth macrodilution method
- Type: functional
- recorded-conditions: 120 h
readout-label: MIC (µg/mL)
Give bare numbers, in µg/mL.

# annotated cases, reported MIC shown
CCOC(=O)c1sc2ccccc2c1Nc1ccc(O)cc1    6.25
c1cncc(Nc2csc3ccccc23)c1    12.5

Would you mind listing MIC for each of the following compounds?
1. CCOC(=O)c1sc2ccccc2c1Nc1ccc(O)cc1O
2. CCOC(=O)c1sc2ccccc2c1Nc1cccnc1

Data returned:
12.5
6.25

###

- Test system: Candida albicans
- test-summary: Antifungal activity against Candida albicans D5 after 48 hrs by broth macrodilution method
- Format: functional
readout-label: MIC

CCOC(=O)c1sc2ccccc2c1Nc1ccc(O)cc1O    25 µg/mL
CCOC(=O)c1sc2ccccc2c1Nc1ccc(O)cc1    > 200 µg/mL
CCOC(=O)c1sc2ccccc2c1Nc1cccnc1    > 200 µg/mL

Give MIC for all molecules that follow.
1. CCOC(=O)c1sc2ccccc2c1Nc1ccc(OC)cc1
2. c1cncc(Nc2csc3ccccc23)c1

Data returned:
["> 200 µg/mL", "50 µg/mL"]

Hi team, please reply with MIC for each item in this list.
1. CCOC(=O)c1sc2ccccc2c1Nc1ccc(F)cc1
2. OC(Cn1cncn1)(Cn1cncn1)c1ccc(F)cc1F
3. CCOC(=O)c1sc2ccccc2c1Nc1ccc(OC)cc1OC

Data returned:
1. > 200 µg/mL
2. > 128 µg/mL
3. > 200 µg/mL

The measured values listed here are drawn from ChEMBL document CHEMBL1156731.
